Tested on: HepG2
Test: Antiproliferative activity, HepG2 cells
Format: cell-based
Details: read-out: HepG2 IC50
reportedProperty: IC50 (µM)

>>> df
                                   compound  measurementtarget  unitannotation  reportedvalue
0  CN1CCC(NC2CCc3[nH]c4c(C(N)=O)ccc(-c5ccccc5Cl)c4c3C2)CC1 (stereo not shown)              HepG2              µM          0.024
